Cited source for all entries: the supplement of paper PMC10065799

Exercise: for every item that follows, state its recorded SH2 binding enrichment.
- Assay system: SHP2-C SH2;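 further: peptide library displayed on the E. coli surface as eCPX fusions, selected cells deep-sequenced, score is each peptide's frequency after selection divided by its frequency in the input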
- Assay remarks: SH2 binding enrichment of the phosphorylated peptide, bacterial display (enrichment ratio); higher = better substrate or ligand; peptides without Tyr show the background
// return just the number, without any unit appended

What value of SH2 binding enrichment has been recorded for this entry: LLLLFCVVRFC [MPZ_Y177_Y177C_YF] 1.77

Fill in: SH2 binding enrichment of KFDLMYAKHAF [TUBA1A_Y399_R402H] is ___ 0.772

So what's the measured SH2 binding enrichment for this one? QHVPDYRQNGF [PCDHGA1_Y890_V894G_YF] 0.633

Looking for the measured SH2 binding enrichment of SDVLSYGVTMW [ZAP70_Y525_W523L] , can you help? 0.699

May I ask what SH2 binding enrichment has been recorded for INNIDYYKNTT [FGFR2_Y656_K659N] ? 0.793

Using the record for LNGDRYFKGIV [DCX_Y64_R59L] , report its SH2 binding enrichment. 0.686

So what's the measured SH2 binding enrichment for this one? LIGRRCDDPEV [HSPA9_Y128_Y128C] 0.557

----------
Would you mind telling me the reported phosphorylation enrichment of each entry?
- Assay system: Jak2 (UniProt O60674)
- Sequence (O60674 whole entry, looked up): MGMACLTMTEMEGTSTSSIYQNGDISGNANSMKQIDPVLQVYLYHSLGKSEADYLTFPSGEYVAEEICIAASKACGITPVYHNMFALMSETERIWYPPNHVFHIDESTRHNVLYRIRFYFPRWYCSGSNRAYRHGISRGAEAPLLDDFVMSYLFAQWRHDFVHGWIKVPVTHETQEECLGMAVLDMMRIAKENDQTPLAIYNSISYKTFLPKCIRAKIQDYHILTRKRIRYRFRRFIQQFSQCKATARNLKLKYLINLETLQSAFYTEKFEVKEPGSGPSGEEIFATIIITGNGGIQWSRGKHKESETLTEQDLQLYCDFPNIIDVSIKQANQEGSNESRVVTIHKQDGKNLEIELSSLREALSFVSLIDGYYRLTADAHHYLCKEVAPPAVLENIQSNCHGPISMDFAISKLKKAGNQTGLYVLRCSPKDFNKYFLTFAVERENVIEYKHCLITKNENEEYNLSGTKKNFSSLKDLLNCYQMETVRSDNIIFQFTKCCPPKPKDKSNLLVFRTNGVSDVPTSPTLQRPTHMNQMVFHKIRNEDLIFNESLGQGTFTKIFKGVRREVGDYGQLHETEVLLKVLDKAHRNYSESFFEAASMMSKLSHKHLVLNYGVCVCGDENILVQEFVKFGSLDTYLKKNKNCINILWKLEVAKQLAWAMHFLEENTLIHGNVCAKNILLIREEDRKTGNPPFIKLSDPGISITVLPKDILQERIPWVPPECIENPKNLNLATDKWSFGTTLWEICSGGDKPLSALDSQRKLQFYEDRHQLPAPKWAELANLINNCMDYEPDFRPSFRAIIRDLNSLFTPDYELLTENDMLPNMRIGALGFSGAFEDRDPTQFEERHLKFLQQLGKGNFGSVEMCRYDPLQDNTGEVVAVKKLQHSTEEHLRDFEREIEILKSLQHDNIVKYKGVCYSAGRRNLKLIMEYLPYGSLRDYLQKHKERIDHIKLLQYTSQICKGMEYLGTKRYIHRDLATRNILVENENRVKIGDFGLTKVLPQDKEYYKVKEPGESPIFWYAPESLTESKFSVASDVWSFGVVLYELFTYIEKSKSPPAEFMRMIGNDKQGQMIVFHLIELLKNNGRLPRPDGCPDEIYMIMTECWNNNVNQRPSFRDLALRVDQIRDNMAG
- Assay remarks: phosphorylation enrichment, bacterial display (enrichment ratio); higher = better substrate or ligand; peptides without Tyr show the background
API doc: respond with a numeric literal and nothing else, no unit.

// fetch Jak2 (UniProt O60674) phosphorylation enrichment for QRRLIYRCQVG [NR2E3_Y81_R76Q] 1.03

API: value(readout= phosphorylation enrichment, system= Jak2 (UniProt O60674), query= FSKQIYKGMVA [PCDH15_Y931_R929Q] ) 0.472

Please tell me: phosphorylation enrichment of SSQHRYSTPHA [RAF1_Y232] , system Jak2 (UniProt O60674)? 0.403

Jak2 (UniProt O60674) / phosphorylation enrichment / LEAVSYSSPYA [RNLS_Y190_R193P] : value? 1.51

# query: phosphorylation enrichment | item GGKYSYLKVGH [GRM3_Y480] | system: Jak2 (UniProt O60674) 0.604

Provide value of phosphorylation enrichment for this record tested with Jak2 (UniProt O60674): MKKKIYAMGGG [GAN_Y424] 0.39

What reported phosphorylation enrichment corresponds to LIGRRCDDPEV [HSPA9_Y128_Y128C] on Jak2 (UniProt O60674)? 1.41

----------
Would you mind telling me the reported phosphorylation enrichment of each entry?
- Assay system: FGFR1 (UniProt P11362)
- Sequence (P11362 whole entry, looked up): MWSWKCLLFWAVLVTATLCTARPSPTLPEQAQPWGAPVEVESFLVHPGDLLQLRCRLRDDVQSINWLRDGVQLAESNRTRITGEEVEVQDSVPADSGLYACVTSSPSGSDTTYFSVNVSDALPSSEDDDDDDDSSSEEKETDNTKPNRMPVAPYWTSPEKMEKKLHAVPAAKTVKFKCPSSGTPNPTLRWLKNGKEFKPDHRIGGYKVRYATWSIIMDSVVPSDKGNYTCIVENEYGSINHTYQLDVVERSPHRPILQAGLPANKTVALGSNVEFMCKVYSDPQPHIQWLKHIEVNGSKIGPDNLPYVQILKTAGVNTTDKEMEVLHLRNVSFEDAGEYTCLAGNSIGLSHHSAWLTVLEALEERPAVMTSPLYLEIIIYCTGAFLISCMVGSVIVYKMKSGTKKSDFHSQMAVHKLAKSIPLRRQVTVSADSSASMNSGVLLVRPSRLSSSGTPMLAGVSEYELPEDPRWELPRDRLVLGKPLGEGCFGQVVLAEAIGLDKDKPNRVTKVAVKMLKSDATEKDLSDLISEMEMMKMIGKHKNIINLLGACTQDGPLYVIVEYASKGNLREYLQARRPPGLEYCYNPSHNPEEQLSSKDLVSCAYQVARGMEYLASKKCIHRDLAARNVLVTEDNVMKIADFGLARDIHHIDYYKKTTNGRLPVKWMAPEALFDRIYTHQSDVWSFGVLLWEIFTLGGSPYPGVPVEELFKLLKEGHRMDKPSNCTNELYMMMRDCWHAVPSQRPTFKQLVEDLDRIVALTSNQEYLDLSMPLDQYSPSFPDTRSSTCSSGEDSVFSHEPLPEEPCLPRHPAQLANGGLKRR
- Assay remarks: phosphorylation enrichment, bacterial display (enrichment ratio); higher = better substrate or ligand; peptides without Tyr show the background
Give only the figure.

Tell me the measured phosphorylation enrichment of IRKVLYANNVM [ACTA1_Y296_D294V] , please. 0.567

Which measured phosphorylation enrichment value corresponds to QLAPQYTFAQG [FLNA_Y1761_YF] ? 0.561

# get_value(readout='phosphorylation enrichment', item= ELRGTYTSLQQ [KIF3C_Y574] ) 0.489

Query: phosphorylation enrichment; subject: ESKKHYGYSLY [ANXA3_Y295_F291S] 0.408

State the recorded phosphorylation enrichment for this entry: HRDDGYMPMSP [IRS1_Y612_T608R] 0.534

# lookup: phosphorylation enrichment of QKPLDYFRVNL [GALE_Y104_YF] 7.69

Query (sequence): EKKDVYKAGEQ [CFH_Y1008] ; field requested: phosphorylation enrichment 0.434

Given HTEGEYSSLEH [IDH3B_Y171_Q166H] , state its recorded phosphorylation enrichment. 0.793

Dear colleague, I am looking for the recorded phosphorylation enrichment of the following sequence: CTTIHYDYMCN [TP53_Y234_N235D] 0.687

Which phosphorylation enrichment is reported for this sequence? PGNIVYSSLCG [BCOR_Y90] 0.892

Would you mind telling me what phosphorylation enrichment value was observed for MFRAGYDTKQE [F10_Y407_C404R] ? 0.379

Which phosphorylation enrichment is reported for this sequence? HNMPIYEGYAL [ACTA1_Y168_V165M] 0.465

I have this sequence here, LIGRRCDDPEV [HSPA9_Y128_Y128C] , and I need its recorded phosphorylation enrichment. 0.697

Would you mind telling me what phosphorylation enrichment value was observed for SGSIHYSHVPR [GLB1_Y57_R59H] ? 0.451

Form field: reported phosphorylation enrichment of LLEGKYEWQEV [CDKN1B_Y74_P69L] 1.14

Would you mind telling me what phosphorylation enrichment value was observed for PLDGEYFTLRI [TP53_Y327_Q331R] ? 6.1

Looking for the measured phosphorylation enrichment of NFDRVYIYHLR [MYOF_Y1137] , can you help? 0.575

For the sequence shown here, LHAAAYQNALA [UQCRC2_Y182_R183Q] , give the reported phosphorylation enrichment. 0.512

Value lookup for phosphorylation enrichment; key = HKGASYAFRLS [PTPRD_Y891_V892A] 0.66

Query: phosphorylation enrichment; subject: QRRNVYYYSYL [PTEN_Y176_Y174N] 16.4

Returns the measured phosphorylation enrichment for the input sequence. Input: LTVVIYVLVGR [EPHA3_Y561_I564V] 0.54

I have this sequence here, RGEKQYLAAPL [ALOX12_Y295] , and I need its recorded phosphorylation enrichment. 0.754

# phosphorylation enrichment lookup, item EQKKFSNAMKK [SCN5A_Y1495_Y1495S_YF] 0.378

Name the reported phosphorylation enrichment value associated with the sequence EQYELYCEMGS [CBL_Y371] 4.55

Requested read-out: phosphorylation enrichment. Entry: LENQTYFKSFE [AKAP9_Y2482] 0.956

Which phosphorylation enrichment is reported for this sequence? QGIPRYHSQSP [FOXF1_Y331] 0.821

For the sequence shown here, VTAALYGCLYE [BTD_Y536_R538C] , give the reported phosphorylation enrichment. 0.558

Param item = TVSRPYSFIEF [SEC22B_Y110] ; retrieve measured phosphorylation enrichment. 3.02

What does the data say about its phosphorylation enrichment? Entry: LESILYESSVV [TRPV4_Y91_T89I] 0.725

Request the reported phosphorylation enrichment associated with QNTVDYFDLFG [PTPN11_Y62_G60V_YF] 16.2

Any idea what its phosphorylation enrichment is? The sequence is RVILRYVNPGN [LAMA3_Y791_T796N] 0.614

Entry WKKEIYEESST [MOCS2_Y170] has what phosphorylation enrichment? 2.85

I'd like to know its phosphorylation enrichment. The sequence in question is SLMGCYNLTFM [HS6ST3_Y323_V320M] 0.546

Request the reported phosphorylation enrichment associated with VGTKRYMALEV [ACVRL1_Y375_P378L] 0.472

Tell me the measured phosphorylation enrichment of TTPAVYARVAK [CTRB2_Y246] , please. 0.436

For AELVQYFMEHH [PTPN11_Y80_YF] , what is its reported phosphorylation enrichment? 0.652

Could you tell me which phosphorylation enrichment is on file for FVSSFYHAFSG [ACTN4_Y265_YF] ? 1.2

Quick one: phosphorylation enrichment for ESPGLCGFLNV [BCR_Y910_Y910C] ? 0.557

GET /values?readout=phosphorylation enrichment&item= LVMFISAIFGM [SCN1A_Y1684_Y1684S] 1.15

What does the record list as phosphorylation enrichment for LADKPYTFEFF [FXN_Y118_D122Y_YF] ? 0.649

Quick one: phosphorylation enrichment for ATKNDYWAMLA [WWOX_Y287_P282A] ? 6.01

Could you tell me which phosphorylation enrichment is on file for SSDPDYRAAVD [GLB1_Y154_L155R] ? 0.556

// lookup phosphorylation enrichment for LRNIDYYRLDG [ATRX_Y2083] 13.1

phosphorylation enrichment for DPEATYTTSGS [EPHA2_Y772_G777S] ? 0.425

Entry under review: KNDSKYVVKGN [KIT_Y823_N822K] . Reported phosphorylation enrichment? 0.382

Need phosphorylation enrichment, item DLDLTSIYPNI [PTEN_Y27_Y27S] 0.468

What value of phosphorylation enrichment has been recorded for this entry: CPTIHYNYMCN [TP53_Y234_T230P] 0.54

What value of phosphorylation enrichment has been reported for the following sequence? DPTFGYEDFTR [SESN2_Y323] 0.481

Query: phosphorylation enrichment; subject: QRIHDYYEHRY [HCN4_Y554] 15.7

Find the recorded phosphorylation enrichment belonging to NWGSPYKSDGC [ZNF347_Y261_N264D] and report it. 0.562

Quick one: phosphorylation enrichment of ISSLDYISKSK [VAV3_Y294_T298S] ? 0.458

Return reported phosphorylation enrichment; argument: NTYENYWPFYQ [GATM_Y103_K102N] 14.3

Param item = CLAKMYFSAVD [CP_Y539_YF] ; retrieve measured phosphorylation enrichment. 0.519

Quick one: phosphorylation enrichment for HSKGIYYVQLE [MGAT4B_Y262_Q257H] ? 5.54

If you can, please state the reported phosphorylation enrichment value of NKPTVCGVSPN [ABL1_Y226_Y226C] . 0.526

# phosphorylation enrichment lookup, item STTSDYQWDVS [MTDH_Y364] 0.659

Request the reported phosphorylation enrichment associated with LFVDVYGPSVP [NUBPL_Y109_D105Y_YF] 0.482
